Origin of values: ChEMBL document CHEMBL1124689

Biological target: GABA-A receptor; anion channel
Assay: Displacing potential to [3H]diazepam binding to benzodiazepine receptor in Wistar rat cerebral cortex
For each record, check the reported Ki: if it is below 500 pM write Y, else write N.

# TODO verify Ki < 500 pM strictly for this compound: Cc1ccc2c(c1)ncc1c(=O)n(-c3csc(C)c3)[nH]c12
Y

And the next one, CCCCc1ccc(-n2[nH]c3c(cnc4cc(C)ccc43)c2=O)s1 ?
N

How about this compound: CCc1ccc(-n2[nH]c3c(cnc4cc(C)ccc43)c2=O)s1
N

Further cases:
Record CCc1csc(-n2[nH]c3c(cnc4cc(C)ccc43)c2=O)c1 : is its Ki strictly below 500 pM?
N

Same read-out for Cc1ccc2c(c1)ncc1c(=O)n(-c3ccsc3)[nH]c12 ?
N

What do you get for CCCc1cc(-n2[nH]c3c(cnc4cc(C)ccc43)c2=O)cs1 ?
N

###

Reported Ki values follow for various compounds
Target: GABA-A receptor; anion channel
Experiment: Displacing potential to [3H]diazepam binding to benzodiazepine receptor in Wistar rat cerebral cortex
Be sure to follow the number with its unit.

Guide cases for Ki, answers given:
Endpoint output: Ki of Cc1ccc2c(c1)ncc1c(=O)n(-c3ccc(C)s3)[nH]c12 . Value?
0.32 nM

Would you kindly repeat that for CCc1cc(-n2[nH]c3c(cnc4cc(C)ccc43)c2=O)cs1 ?
0.41 nM

Continue with CCCc1csc(-n2[nH]c3c(cnc4cc(C)ccc43)c2=O)c1
1.01 nM

Another compound: Cc1ccc2c(c1)ncc1c(=O)n(-c3cccs3)[nH]c12
0.41 nM

Consider the record given below.
What does the data say about its Ki? Entry: Cc1csc(-n2[nH]c3c(cnc4cc(C)ccc43)c2=O)c1
0.48 nM
